Value source: ChEMBL document CHEMBL5331093

The entries below are paired with their reported CC50 at 120 h.
assay: Cytotoxicity against human MT4 cells assessed as reduction in cell viability incubated for 5 days by MTT assay; type: toxicity, cell-based; conditions: time 5 day

As a guide, the following entries are already answered.
O=C1Nc2ccc(Cl)cc2[C@@](C#CC2CC2)(C(F)(F)F)O1 = > 6.34 µM
Cc1cc(C#N)cc(C)c1Oc1nc(Nc2ccc(C#N)cc2)nc(N)c1Br = > 4.59 µM

Attention now turns to another entry.
Entry `Cc1cc(C#N)cc(C)c1Oc1nc(Nc2ccc(C#N)cc2)ncc1C#CC(=O)NCCN1CCOCC1` , CC50 at 120 h reported as > 240 µM

* * *

test: Selectivity index, ratio of CC50 cytotoxicity against human MT4 cells to EC50 for anti-HIV activity against wild type HIV-1 IIIB infected in human MT4 cells; format: toxicity, cell-based; settings: read-out: Ratio CC50/EC50
measurement kind: selectivity ratio
Please state the value as a number alone, without comment.

Cc1cc(C#N)cc(C)c1Oc1nc(Nc2ccc(C#N)cc2)ncc1SCC(=O)NCCCN1CCOCC1 = 6930
COCCNC(=O)C#Cc1cnc(Nc2ccc(C#N)cc2)nc1Oc1c(C)cc(C#N)cc1C = 6650

We now examine a further compound.
# selectivity ratio of `Cc1cc(C#N)cc(C)c1Oc1nc(Nc2ccc(C#N)cc2)ncc1C#CC(=O)NC1CC1` = 1110
